# method_description: recombinant barcode read abundance after kanamycin selection (control-corrected) (log10(CPM+1)); higher = more efficient recombination; sequences stand for … in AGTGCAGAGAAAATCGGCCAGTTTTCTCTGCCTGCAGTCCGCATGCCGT…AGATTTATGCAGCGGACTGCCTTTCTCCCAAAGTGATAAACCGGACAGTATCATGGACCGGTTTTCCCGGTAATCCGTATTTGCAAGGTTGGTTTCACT; site = the 11-nt target
Decision: recombinant barcode read abundance (log10) >= 0.1 yields condition met, all other cases yield condition not met.

Please review the entries below; each comes with its answer.
AACAGGTCTTGGGTTCTAACCTGTTGCCT (site AGCAGGTCTAG) :: condition not met
TACACTACTTGGGTTCTAACCTGTTGCAT (site TACACTACTAT) :: condition met
AGAGAATCTTGGGTTCTAACCTGTTGCCT (site AGGGAATCTAG) :: condition met
ACCTGTACTTGGGTTCTAACCTGTTGCCT (site ACCCGTACTAG) :: condition met
ACAAGGGCTTGGGTTCTAACCTGTTGCCT (site ACAAGGGCTAG) :: condition met

[in] Check if recombinant barcode read abundance (log10) >= 0.1 (inclusive). Item: TCTTTAGCTTGGGTTCTAACCTGTTGCAG (site CTAAGGTCTTA)
[out] condition met

[in] Check if recombinant barcode read abundance (log10) >= 0.1 (inclusive). Item: ACGACTTCTTGGGTTCTAACCTGTTGCCT (site ACGACTGCTAG)
[out] condition not met

[in] Check if recombinant barcode read abundance (log10) >= 0.1 (inclusive). Item: TAGAAGCCTTGGGTTCTAACCTGTTGCCT (site AAGAAGCCTAG)
[out] condition met

[in] Check if recombinant barcode read abundance (log10) >= 0.1 (inclusive). Item: ACGGAGTCTTGGGTTCTAACCTGTTGCTA (site ACGGAGTCTTA)
[out] condition met

[in] Check if recombinant barcode read abundance (log10) >= 0.1 (inclusive). Item: TAGAGCCCTTGGGTTCTAACCTGTTGCGG (site TCGAGGCCTCC)
[out] condition not met

###

# method_description: recombinant UMI read abundance after kanamycin selection (control-corrected) (log10(CPM+1)); higher = more efficient recombination; extreme values may be limits of the assay; sequences stand for … in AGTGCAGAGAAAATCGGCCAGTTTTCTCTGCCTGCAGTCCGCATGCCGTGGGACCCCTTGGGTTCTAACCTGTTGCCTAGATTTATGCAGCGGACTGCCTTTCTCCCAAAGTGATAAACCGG…AGGTTGGTTTCACT; site = the 11-nt donor
Decision: recombinant UMI read abundance (log10) >= 0.01 yields label 1, all other cases yield label 0.

Please review the entries below; each comes with its answer.
CACACCTCATGGACCGGTTTTCCCGGTAATCCGTATTTGCC (site CACTCCTCTGG) :: label 1
GGTCCAACATGGACCGGTTTTCCCGGTAATCCGTATTTGTT (site GGTCCAACTAA) :: label 1
TAGCTCGCATGGACCGGTTTTCCCGGTAATCCGTATTTGAA (site TAGCTGGCTTT) :: label 1

[in] Check if recombinant UMI read abundance (log10) >= 0.01 (inclusive). Item: GAATGGCCATGGACCGGTTTTCCCGGTAATCCGTATTTGTA (site GAATGGCCTTG)
[out] label 0

[in] Check if recombinant UMI read abundance (log10) >= 0.01 (inclusive). Item: CAGGCGCCATGGACCGGTTTTCCCGGTAATCCGTATTTGTG (site CAAGCGCCTCA)
[out] label 1
